tgt: T1, recombinant human interleukin-4 (human, UniProt P05112 25-153)
T1 sequence (looked up): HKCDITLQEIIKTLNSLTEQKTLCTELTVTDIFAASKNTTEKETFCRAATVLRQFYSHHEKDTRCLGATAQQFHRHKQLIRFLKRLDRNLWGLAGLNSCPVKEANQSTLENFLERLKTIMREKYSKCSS
experimentalDetails: cell-based or functional assay
metric: IL-4 induced IgE IC50
Report field: quantity (unit follows the number).

# binder, measuredResult
records = [
    ("Example 4 antibody comprising SEQ ID NO:25 and SEQ ID NO:26 (antibody, human IgG1, V domains shown, also called Ex. 4) VH: QVQLVQSGAEVKKPGSSVKVSCKASGDTFSSYAISWVRQAPGQGFEWMGGIIPVIGTVNYEERFQDRVTITADNSTSTAYMELTSLRSEDTAVYFCGREEGFLDYWGQGTLVTVSS VL: AIQLTQSPSSLSASVGDRVTITCRASQGISSALAWYQQKPGKAPKLLIYDASSLESGVPSRFSGSGSGTDFTLTISSLQPEDFATYYCQQFNSYPLLTFGGGTKVEIKR", "7.57 nM"),
]

Query: So what's the measured IL-4 induced IgE IC50 for this one? Example 2 antibody comprising SEQ ID NO:9 and SEQ ID NO:10 (antibody, human IgG1, V domains shown, also called Ex. 2) VH: QVQLVESGGGVVQPGRSLRLSCAASGFTLSSFGMHWVRQAPGKGLEWVAVIWYDGSNEYYADSVKGRFTTSRDNSKNTLYLQMNSLRAEDTAVYYCAREGSWSPDIFDIWGQGTMVTVSS VL: AIQLTQSPSSLSASVGDRVTITCRTSQGIRSALAWYQQNPGKAPKLLIYDASSLESGVPSRFSGSGSGTDFTLTISSLQPEDFATYYCQQFNSYPVTFGQGTRLEIKR
Result: 5.34 nM
